# Tested on: Acinetobacter baumannii ATCC17978
# Experiment Description: Antimicrobial susceptibility testing: 90% growth inhibitory concentration (IC90) determination, Iso-Sensitest broth
# Type: cell-based
# Experimental Context: 90% growth inhibitory concentration, Acinetobacter baumannii ATCC17978, Iso-Sensitest broth; read-out: ATCC 17978 IC90
Counter-ions that a name gives are not always drawn.
Quantity: IC90 (nM)

{"columns": ["Molecule", "IC90 (nM)"],
 "data": [
  ["CNCC(=O)N1CCN(C(=O)c2ccc(NC(=O)c3ncc(-c4ccc(OCC#N)c(F)c4F)n3C)cc2C)CC1 [Example 206, 2,2,2-trifluoroacetate]", 100],
  ["COc1ccc(-c2cnc(C(=O)Nc3ccc(C(=O)N4CCN(C(=O)[C@@H]5C[C@H](O)CN5)CC4)c(Cl)c3)n2C)c(Cl)c1F [Example 114, formate]", 110]
]}

[P] Cn1c(-c2ccc(OCC#N)c(F)c2F)cnc1C(=O)Nc1ccc(C(=O)N2CCC(C(=O)N3CCOCC3)CC2)c(Cl)c1 [Example 74]
[Q] CCc1cc(NC(=O)c2ncc(-c3ccc(OC)cc3Cl)n2C)ccc1C(=O)N1CCN(CCN(C)C)CC1 [Example 277]
[R] Cc1cc(NC(=O)c2ncc(-c3ccc(OCC#N)c(F)c3F)n2C)ccc1C(=O)N1CCC(C(=O)N2CCS(=O)(=O)CC2)CC1 [Example 77]
Put the molecules in ascending order of IC90. Answer format: the labels, ordered as requested.
P, R, Q
(P: 100 nM, R: 170 nM, Q: 2300 nM)
